B1: Storkhead-box protein 2, residues 64 to 141; numbered along this chain, Q9P2F5 (parent)
chain: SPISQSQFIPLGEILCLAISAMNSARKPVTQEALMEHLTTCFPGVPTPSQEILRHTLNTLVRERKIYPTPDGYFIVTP

# Variants of: B1
# test-name: abundance fitness (aPCA) (normalised: wild type 0, dead -1); higher = more abundant; growth selection in yeast, the domain comes from the species named
# recorded-conditions: Homo sapiens
quantity: abundance fitness
One number for each entry.

>>> print(df.to_string())
   mutation_code  number
0           L11C   -0.62
1            P2D   0.124
2            Q5H  -0.099
3           G72I  -0.613

Hi! Can you tell me abundance fitness for each of these variants?
1. T47S
2. G72Q
3. L53H

OUT:
-0.092
-0.034
-0.756
